biological target: PLU1 (KDM5B) (Homo sapiens, UniProt Q9UGL1); construct: 1-809; host or cells: E. coli; assay: Histone lysine demethylase AlphaLISA assay, PLU1; type: biochemical; settings: substrate H3K4M3B
Measured IC50 accompanies every entry in the list below.
readout-label: IC50

- molecule: "CN(CCCc1nccn1C)C(=O)CNCc1cc(C(=O)O)ccn1"
  readout-label: "IC50"
  result: "< 100 nM"
- molecule: "COc1ccc(CNCc2cc(C(=O)O)ccn2)c(OC)c1"
  readout-label: "IC50"
  result: "< 100 nM"
- molecule: "CCN(CCN(C)C)C(=O)CNCc1cc(C(=O)Oc2ccc(C(C)(C)C)cc2)ccn1"
  readout-label: "IC50"
  result: "< 100 nM"
- molecule: "O=C(CNCc1cc(C(=O)O)ccn1)NC1CCN(CCc2ccccc2)C1 (stereo not drawn)"
  readout-label: "IC50"
  result: "< 100 nM"
- molecule: "CCCCN(CC(=O)N1CCCCC1)Cc1cc(C(=O)O)ccn1"
  readout-label: "IC50"
  result: "≥ 1000 nM"
- molecule: "CC(C)C[C@H](NCc1cc(C(=O)O)ccn1)C(=O)NC(C)(C)C"
  readout-label: "IC50"
  result: "≥ 1000 nM"

====

Measured IC50 accompanies every entry in the list below.
Molecular target: UniProtKB Q9H3R0
Sequence (Q9H3R0 1-349): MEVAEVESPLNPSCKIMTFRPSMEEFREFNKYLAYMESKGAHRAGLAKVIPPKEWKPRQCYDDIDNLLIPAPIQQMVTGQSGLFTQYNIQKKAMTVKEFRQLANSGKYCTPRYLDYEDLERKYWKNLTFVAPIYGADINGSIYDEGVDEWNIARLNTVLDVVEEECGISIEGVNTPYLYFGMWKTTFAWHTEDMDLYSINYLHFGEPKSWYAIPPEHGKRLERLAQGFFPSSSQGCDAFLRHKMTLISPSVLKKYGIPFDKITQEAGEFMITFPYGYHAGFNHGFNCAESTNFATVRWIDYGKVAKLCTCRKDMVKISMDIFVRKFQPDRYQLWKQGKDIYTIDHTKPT
readout-label: IC50

- item-smiles: "CCN(CCN(C)C)C(=O)CNCc1cc(C(=O)N2CCOC2=O)ccn1"
  result: "< 100 nM"
- item-smiles: "CCN(CCN(C)C)C(=O)CNCc1cc(C(=O)OCC(F)F)ccn1"
  result: "< 100 nM"
- item-smiles: "O=C(O)c1ccnc(CNCCCN2CCCC2)c1"
  result: "100 to 1000 nM"

====

Target: PLU1 (KDM5B) (Homo sapiens, UniProt Q9UGL1)
Construct: 1-809; host or cells: E. coli
Sequence (Q9UGL1 1-809): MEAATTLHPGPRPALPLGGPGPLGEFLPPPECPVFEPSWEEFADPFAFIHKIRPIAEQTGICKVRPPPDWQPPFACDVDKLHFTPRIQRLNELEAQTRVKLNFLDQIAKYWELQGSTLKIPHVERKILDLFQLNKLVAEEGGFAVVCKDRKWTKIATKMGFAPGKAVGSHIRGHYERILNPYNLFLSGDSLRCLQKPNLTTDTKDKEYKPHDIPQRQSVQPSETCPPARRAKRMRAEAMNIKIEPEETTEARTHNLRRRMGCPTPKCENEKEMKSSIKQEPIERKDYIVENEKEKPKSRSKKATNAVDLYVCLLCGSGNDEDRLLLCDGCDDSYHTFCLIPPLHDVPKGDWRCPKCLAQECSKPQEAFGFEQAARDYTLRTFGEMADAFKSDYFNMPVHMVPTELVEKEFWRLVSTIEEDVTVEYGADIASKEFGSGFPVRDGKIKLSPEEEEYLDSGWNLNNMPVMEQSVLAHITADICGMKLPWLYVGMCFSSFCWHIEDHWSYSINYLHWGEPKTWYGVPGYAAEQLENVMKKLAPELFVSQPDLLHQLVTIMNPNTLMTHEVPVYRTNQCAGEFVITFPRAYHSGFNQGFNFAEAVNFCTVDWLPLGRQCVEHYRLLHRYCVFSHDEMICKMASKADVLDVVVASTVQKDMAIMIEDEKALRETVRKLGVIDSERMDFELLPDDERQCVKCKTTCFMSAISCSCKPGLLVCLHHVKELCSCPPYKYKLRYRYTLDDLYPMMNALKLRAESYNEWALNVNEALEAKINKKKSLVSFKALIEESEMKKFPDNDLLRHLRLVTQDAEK
Assay: Histone lysine demethylase AlphaLISA assay, PLU1
Format: biochemical
Conditions: substrate H3K4M3B
pIC50: −log10 of the molar value.
Measured pIC50 accompanies every entry in the list below.
readout-label: pIC50

- compound: "CCN(CCN(C)C)C(=O)CNCc1cc(C(=O)OCC(F)F)ccn1"
  assayed-target: "PLU1 (KDM5B) (Homo sapiens, UniProt Q9UGL1)"
  readout-label: "pIC50"
  result: "> 7.00"
- compound: "CCN(CCN(C)C)C(=O)CNCc1cc(C(=O)OC(C)CCNC(=O)C(F)(F)F)ccn1 (stereo not shown)"
  assayed-target: "PLU1 (KDM5B) (Homo sapiens, UniProt Q9UGL1)"
  readout-label: "pIC50"
  result: "6.00 to 7.00"
- compound: "CCN(CCN(C)C)C(=O)CNCc1cc(C(=O)OC(CCNC(=O)C(F)(F)F)CC(=O)OC(C)C)ccn1 (stereo not shown)"
  assayed-target: "PLU1 (KDM5B) (Homo sapiens, UniProt Q9UGL1)"
  readout-label: "pIC50"
  result: "> 7.00"
- compound: "O=C(CNCc1cc(C(=O)O)ccn1)NC1CCN(CCCc2ccccc2)CC1"
  assayed-target: "PLU1 (KDM5B) (Homo sapiens, UniProt Q9UGL1)"
  readout-label: "pIC50"
  result: "> 7.00"
- compound: "O=C(O)c1ccnc(CN2CCCCC2)c1"
  assayed-target: "PLU1 (KDM5B) (Homo sapiens, UniProt Q9UGL1)"
  readout-label: "pIC50"
  result: "≤ 6.00"
- compound: "CC(C)C[C@@H](C(=O)N1CCCCC1)N(C)Cc1cc(C(=O)O)ccn1"
  assayed-target: "PLU1 (KDM5B) (Homo sapiens, UniProt Q9UGL1)"
  readout-label: "pIC50"
  result: "≤ 6.00"
- compound: "CCN(CC)CCCCNCc1cc(C(=O)Oc2c(C)cccc2C)ccn1"
  assayed-target: "PLU1 (KDM5B) (Homo sapiens, UniProt Q9UGL1)"
  readout-label: "pIC50"
  result: "> 7.00"
- compound: "O=C(O)c1ccnc(CNCCCN2CCCC2)c1"
  assayed-target: "PLU1 (KDM5B) (Homo sapiens, UniProt Q9UGL1)"
  readout-label: "pIC50"
  result: "> 7.00"
- compound: "CCN(CCN(C)C)C(=O)CNCc1cc(C(=O)OC(CNC(=O)C(F)(F)F)CC(=O)OC(C)C)ccn1 (stereo not shown)"
  assayed-target: "PLU1 (KDM5B) (Homo sapiens, UniProt Q9UGL1)"
  readout-label: "pIC50"
  result: "6.00 to 7.00"
- compound: "CCN(CC)CCCCNCc1cc(C(=O)OCCCN(C)C)ccn1"
  assayed-target: "PLU1 (KDM5B) (Homo sapiens, UniProt Q9UGL1)"
  readout-label: "pIC50"
  result: "> 7.00"
- compound: "O=C(O)c1ccnc(CN2CCC2)c1"
  assayed-target: "PLU1 (KDM5B) (Homo sapiens, UniProt Q9UGL1)"
  readout-label: "pIC50"
  result: "≤ 6.00"
- compound: "O=C(CNCc1cc(C(=O)O)ccn1)NC1CCN(Cc2ccco2)CC1"
  assayed-target: "PLU1 (KDM5B) (Homo sapiens, UniProt Q9UGL1)"
  readout-label: "pIC50"
  result: "> 7.00"
- compound: "CCN(CCN(C)C)C(=O)CNCc1cc(C(=O)Nc2ccnn2C)ccn1"
  assayed-target: "PLU1 (KDM5B) (Homo sapiens, UniProt Q9UGL1)"
  readout-label: "pIC50"
  result: "> 7.00"
- compound: "CC(C)CCNCc1cc(C(=O)O)ccn1"
  assayed-target: "PLU1 (KDM5B) (Homo sapiens, UniProt Q9UGL1)"
  readout-label: "pIC50"
  result: "6.00 to 7.00"
- compound: "CCN(CCN(C)C)C(=O)CNCc1cc(C(=O)Nc2ncco2)ccn1"
  assayed-target: "PLU1 (KDM5B) (Homo sapiens, UniProt Q9UGL1)"
  readout-label: "pIC50"
  result: "> 7.00"
- compound: "O=C(O)c1ccnc(CNCC(=O)N2CCC[C@@H]2CN2CCCC2)c1"
  assayed-target: "PLU1 (KDM5B) (Homo sapiens, UniProt Q9UGL1)"
  readout-label: "pIC50"
  result: "> 7.00"
- compound: "O=C(O)c1ccnc(CNCCCN2CCC(Cc3ccccc3)CC2)c1"
  assayed-target: "PLU1 (KDM5B) (Homo sapiens, UniProt Q9UGL1)"
  readout-label: "pIC50"
  result: "> 7.00"
- compound: "CCN(CC)CCCCNCc1cc(C(=O)OCCN(C)C)ccn1"
  assayed-target: "PLU1 (KDM5B) (Homo sapiens, UniProt Q9UGL1)"
  readout-label: "pIC50"
  result: "> 7.00"
- compound: "CC(C)N(CC(=O)N1CCCCC1)Cc1cc(C(=O)O)ccn1"
  assayed-target: "PLU1 (KDM5B) (Homo sapiens, UniProt Q9UGL1)"
  readout-label: "pIC50"
  result: "≤ 6.00"
